Test system: Adjuvant Arthritis
Assay: Adjuvant-induced arthritis in rats (inhibitory activity)
Format: in vivo, male rats of Westar-Lewis strain
Settings: 10 mg/kg oral once a day, seven continuous days
endpoint.name: Inhibitory effect (adjuvant arthritis, Table 3)

smi | result
CC(=O)N(c1cc2occc(=O)c2cc1Oc1ccccc1)S(C)(=O)=O | ++++ (× ≥ 40)
CS(=O)(=O)Nc1cc2occc(=O)c2cc1Oc1ccc(F)cc1F | ++++ (× ≥ 40)
Cc1cc(=O)c2cc(Oc3ccccc3)c(NS(C)(=O)=O)cc2o1 | ++++ (× ≥ 40)

====

System: mice
Assay: Oral acute toxicity in mice
Format: in vivo, ICR strain male mice
Settings: oral, dose of 500 mg/kg, observed over one week

molecule | death cases
CS(=O)(=O)Nc1cc2occc(=O)c2cc1Oc1ccc(F)cc1F [Compound 94] | no death case was found
CS(=O)(=O)Nc1cc2occ(NC=O)c(=O)c2cc1Oc1ccc(F)cc1F [Compound 39] | no death case was found
Cc1ccccc1Oc1cc2c(=O)c(NC=O)coc2cc1NS(C)(=O)=O [Compound 46] | no death case was found
CS(=O)(=O)Nc1cc2occ(NC=O)c(=O)c2cc1Oc1ccccc1F [Compound 34] | no death case was found
CS(=O)(=O)Nc1cc2occ(NC=O)c(=O)c2cc1Oc1ccccc1 [Compound 99] | no death case was found
CS(=O)(=O)Nc1cc2occc(=O)c2cc1Oc1ccccc1 [Compound 1] | no death case was found
